# ASSAYED_SYSTEM: T1, recombinant human CEACAM5 (human, UniProt P06731 35-685, limits assumed)
# T1 construct: Immobilised by amine coupling on a CM5 chip
# T1 sequence (looked up): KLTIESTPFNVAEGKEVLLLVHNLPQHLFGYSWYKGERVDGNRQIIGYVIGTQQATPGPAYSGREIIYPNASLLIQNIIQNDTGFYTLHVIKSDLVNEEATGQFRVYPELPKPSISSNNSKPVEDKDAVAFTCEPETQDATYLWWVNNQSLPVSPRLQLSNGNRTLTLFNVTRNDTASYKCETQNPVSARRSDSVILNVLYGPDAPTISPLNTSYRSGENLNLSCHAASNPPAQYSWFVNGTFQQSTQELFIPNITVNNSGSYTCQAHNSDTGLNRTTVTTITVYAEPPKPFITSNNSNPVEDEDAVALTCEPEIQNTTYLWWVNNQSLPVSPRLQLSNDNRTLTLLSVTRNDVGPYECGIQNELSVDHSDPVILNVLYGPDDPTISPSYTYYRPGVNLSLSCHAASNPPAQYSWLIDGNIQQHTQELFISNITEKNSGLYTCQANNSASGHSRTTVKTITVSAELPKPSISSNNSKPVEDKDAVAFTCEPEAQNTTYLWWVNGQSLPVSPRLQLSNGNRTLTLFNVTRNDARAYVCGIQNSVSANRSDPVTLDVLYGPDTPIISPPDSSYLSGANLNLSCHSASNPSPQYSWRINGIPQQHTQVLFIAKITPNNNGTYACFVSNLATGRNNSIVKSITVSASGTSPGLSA
# ASSAY_PROCEDURE: SPR Biacore 8K+, CEACAM5 amine-coupled on CM5, ISVD analyte, 1:1 fit
I'd be grateful if you could share measured koff for these entries.
Answers are plain numbers, in s⁻¹.

Worked examples follow.
>>> recorded_result("T028501800 (VHH, K75E vs precursor T028501789; also called A0315007E07(K75E)) VHH: EVQLVESGGGVVQPGGSLRLSCAASGLTFSTYTMGWFRQAPGKEREFVAAIIWSGSNTYYADSVKGRFTISRDNAENTVYLQMNSLRPEDTALYYCAAQHFGPIGLTTRGYHYWGQGTLVTVSS")
0.000911
>>> recorded_result("T028501817 (VHH, also called A031500099; A0315024B02(L11V, A14P, D16G S23A, M43K, Q64K, K83R, G85E, G89L)) VHH: EVQLVESGGGVVQPGGSLRLSCAASGHTFSEYALGWFRQAPGKEREFVAAINWGGGWTYYADSVKGRFTISRDNAKNTLYLQMNSLRPEDTALYYCAASSDYAGGNPTGYPYWGQGTLVTVSS")
0.00212
>>> recorded_result("T028501823 (VHH, K64E vs precursor T028501817; also called A0315024B02(M43K, Q64E, K83R)) VHH: EVQLVESGGGVVQPGGSLRLSCAASGHTFSEYALGWFRQAPGKEREFVAAINWGGGWTYYADSVEGRFTISRDNAKNTLYLQMNSLRPEDTALYYCAASSDYAGGNPTGYPYWGQGTLVTVSS")
0.00282

Next, consider the following binder.
-- ask Query: koff; subject: T028501801 (VHH, K75Q vs precursor T028501789; also called A0315007E07(K75Q)) VHH: EVQLVESGGGVVQPGGSLRLSCAASGLTFSTYTMGWFRQAPGKEREFVAAIIWSGSNTYYADSVKGRFTISRDNAQNTVYLQMNSLRPEDTALYYCAAQHFGPIGLTTRGYHYWGQGTLVTVSS
-- reply 0.000913

The reported measurements were obtained from patent US20250236673A1.
